Test system: P12-Ichikawa
Assay: cell viability relative to DMSO control; higher = less cytotoxic
Settings: RPMI 5 mM glucose + 10% FBS; 48 h; 15.4 µM
OBSERVABLE: cell viability (%)

1. CN1/C=C(\N=C(NC2=CC=C(C=C2)C(=O)N3CCOCC3)/C1=O)/C4=C(C)C(=CC=C4)NC(=O)C5=CC=C(C=C5)C(C)(C)C : 95.4
2. Cn1cc(-c2cnn3c(N)c(Br)c([C@@H]4CCCNC4)nc23)cn1 : 3.15
3. CC(=O)Oc1cc2c(s1)CCN(C(C(=O)C1CC1)c1ccccc1F)C2.Cl (configuration not stated) : 94.8
4. O=[S+]([O-])(O)c1ccc2cc(/N=N/c3cc([S+](=O)([O-])O)c4cccnc4c3O)ccc2c1 : 113
5. CC1(C)Cc2c(sc(NC(=S)NC(=O)c3ccccc3)c2C(=O)O)CO1 : 108
6. Cc1cccc(N(C)C(=S)Oc2ccc3ccccc3c2)c1 : 99.6
7. CCCNCC(O)COc1ccccc1C(=O)CCc1ccccc1 (configuration not stated) : 128
8. CC(Cc1ccc(O)c(O)c1)(NN)C(=O)O (configuration not stated) : 113
9. CN(C)CC[C@H](CSc1ccccc1)Nc1ccc([S+](=O)([O-])NC(=O)c2ccc(N3CCN(Cc4ccccc4-c4ccc(Cl)cc4)CC3)cc2)cc1[N+](=O)[O-] : 12.5
10. CO[C@H]1/C=C/O[C@@]2(C)Oc3c(C)c(O)c4c(O)c(c(/C=N/N5CCN(C)CC5)c(O)c4c3C2=O)NC(=O)/C(C)=C\C=C\[C@H](C)[C@H](O)[C@@H](C)[C@@H](O)[C@@H](C)[C@H](OC(C)=O)[C@@H]1C : 89.9
11. NCCCCCC(=O)O : 105
12. Cn1c(=O)c2[nH]cnc2n(C)c1=O : 108
13. CO[C@@H]1[C@@H](OC(N)=O)[C@@H](O)[C@H](OC2=CC=C3\C(=C(NC(=O)C4=CC=C([O-])C(=C4)CC=C(C)C)/C(=O)OC3=C2C)O)OC1(C)C : 94.2
14. COc1cc(NC(=O)c2ccc(-c3ccc(Cl)cc3)o2)cc(OC)c1 : 99.5
15. C/C(=C\c1csc(C)n1)[C@@H]1C[C@@H]2O[C@@H]2CCC[C@H](C)[C@H](O)[C@@H](C)C(=O)C(C)(C)[C@@H](O)CC(=O)O1 : 18.1
16. CNC(=O)c1ccc(N2C(=S)N(c3ccc(C#N)c(C(F)(F)F)c3)C(=O)C2(C)C)cc1F : 116
17. O=[S+]([O-])(/N=C/c1c(O)ccc2ccccc12)c1cccs1 : 123
18. CN1C2=CC(=O)/C(=N/NC(N)=O)C=C2CC1S(=O)(=O)[O-].[Na+] (configuration not stated) : 112
19. O=C(O)CSCC(=O)NC1CCSC1=O (configuration not stated) : 116
20. CCCC1=N[N](C)C2=C1\N=C(/NC2=O)C3=CC(=CC=C3OCC)[S+]([O-])(=O)N4CCN(C)CC4 : 82.4
21. O=C(c1ccc(/C=C/c2n[nH]c3ccccc23)cc1)N1CCNCC1 : 16.3
22. C/C(=C\c1csc(C)n1)[C@@H]1C[C@@H]2O[C@]2(C)CCC[C@H](C)[C@H](O)[C@@H](C)C(=O)C(C)(C)[C@@H](O)CC(=O)O1 : 24.2

###

System: SEM cells
Test: cell viability relative to DMSO control; higher = less cytotoxic
Details: HPLM + 10% dialyzed FBS; 48 h; 0.0632 µM
OBSERVABLE: cell viability

1) COc1ccc(CC2c3cc(OC)c(OC)cc3CC[N+]2(C)CCC(=O)OCCCCCOC(=O)CC[N+]2(C)CCc3cc(OC)c(OC)cc3C2Cc2ccc(OC)c(OC)c2)cc1OC (stereo not drawn) : 80.3%
2) CN1/C=C(\N=C(NC2=CC=C(C=C2)C(=O)N3CCOCC3)/C1=O)/C4=C(C)C(=CC=C4)NC(=O)C5=CC=C(C=C5)C(C)(C)C : 106%
3) NCCCC(O)(P(=O)(O)O)P(=O)(O)O.O.O.O.[Na+] : 122%
4) CN1CCN(Cc2ccc(NC(=O)Nc3ccc(Oc4cc(NC(=O)C5CC5)ncn4)cc3)cc2C(F)(F)F)CC1 : 51.4%
5) C[C@]12CC[C@@H]3c4ccc(O)cc4CC[C@H]3[C@@H]1CC[C@@H]2O : 98.9%
6) NCCCCCC(=O)O : 108%
7) O=[N+]([O-])c1ccc(Nc2ccccc2-c2ccccc2)c2nonc12 : 63.4%
8) COc1cccc2c(NCc3ccccc3)nc(-n3c(N)nc4ccccc43)nc12 : 89.1%

###

Test system: NOMO1
Assay: cell viability relative to DMSO control; higher = less cytotoxic
Conditions: HPLM + 10% dialyzed FBS; 48 h; 0.0211 µM
OBSERVABLE: cell viability (%)

1) COc1ccc(CC2c3cc(OC)c(OC)cc3CC[N+]2(C)CCC(=O)OCCCCCOC(=O)CC[N+]2(C)CCc3cc(OC)c(OC)cc3C2Cc2ccc(OC)c(OC)c2)cc1OC (centres undefined) : 98.5
2) CC(Cc1ccc(O)c(O)c1)(NN)C(=O)O (centres undefined) : 103
3) COc1ccc2c(OCc3nnc4ccc(-c5ccccc5)nn34)ccnc2c1 : 92.8
4) COc1ccc(C(=O)CC(=O)c2ccc(C(C)(C)C)cc2)cc1 : 101
5) CC(C[N+](C)(C)C)OC(N)=O (centres undefined) : 119
6) CCOc1cc(/C=C2/C(=O)N(c3ccccc3)N=C2C)cc(Cl)c1OCC(=O)OC : 93.5
7) COc1nccc(-c2c(-c3ccc(F)cc3)ncn2C2CCC(O)CC2)n1 (centres undefined) : 123
8) CC(=O)OCC(=O)[C@@]12OC(C)(C)O[C@@H]1C[C@H]3[C@@H]4C[C@H](F)C/5=C/C(=O)/C=C\[C@]5(C)[C@@]4(F)[C@@H](O)C[C@]23C : 126
9) CCCCOc1ccc(CC(=O)NO)cc1 : 121

###

Tested on: P12-Ichikawa
Test: cell viability relative to DMSO control; higher = less cytotoxic
Conditions: RPMI 5 mM glucose + 10% dialyzed FBS; 48 h; 0.00234 µM
Known cell viability of a selection of compounds
OBSERVABLE: cell viability (%)

1) C/C(=C\c1csc(C)n1)[C@@H]1C[C@@H]2O[C@]2(C)CCC[C@H](C)[C@H](O)[C@@H](C)C(=O)C(C)(C)[C@@H](O)CC(=O)O1 : 34.4
2) FC(F)(F)C1=CC=C2C(SCCCCCO\C3=C\O\C(CN4CCOCC4)=C/C3=O)=CC=NC2=C1 : 118
3) O=[S+]([O-])(CCSSCC[S+](=O)([O-])[O][Na])[O][Na] : 133

###

Test system: P12-Ichikawa
Assay: cell viability relative to DMSO control; higher = less cytotoxic
Settings: RPMI 5 mM glucose + 10% FBS; 48 h; 1.71 µM
Please assign Criterion not met whenever cell viability is at or above 90%, and Criterion met whenever it is below.

1. NC(=O)c1cnc(-c2ccc(C3(N)CCC3)cc2)c(-c2ccccc2)c1 : Criterion not met
2. O=[S+]([O-])(/N=C/c1c(O)ccc2ccccc12)c1cccs1 : Criterion not met
3. CC[C@H](NC(C)C)[C@H](O)c1ccc(O)c2[nH]c(=O)ccc12 : Criterion not met
4. O=P1(N(CCCl)CCCl)NCCCO1 (configuration not stated) : Criterion not met
5. CCOc1cc(/C=C2/C(=O)N(c3ccccc3)N=C2C)cc(Cl)c1OCC(=O)OC : Criterion met
6. CN1CCN(Cc2ccc(NC(=O)Nc3ccc(Oc4cc(NC(=O)C5CC5)ncn4)cc3)cc2C(F)(F)F)CC1 : Criterion met
7. C[C@H](NC(=O)Cc1cc(F)cc(F)c1)C(=O)N[C@@H]1C(=O)N(C)c2ccccc2-c2ccccc21 : Criterion not met
8. FC1=CC=C(CN2\C=C/C=C(/C(=O)N[C@@H](COC3=CC4=C(NC(=O)N4)C=C3)C5=CC=CC=C5)C2=O)C=C1F : Criterion met
9. CN(C)/[N+]([O-])=N/Oc1cc(ON[N+](=O)N2CCN(C(=O)c3cc(Cc4n[nH]c(=O)c5ccccc45)ccc3F)CC2)c([N+](=O)[O-])cc1[N+](=O)[O-] : Criterion not met
10. Cc1cccc(N(C)C(=S)Oc2ccc3ccccc3c2)c1 : Criterion not met
11. O=C1CCC[C@@H]2[C@H]3CCC[N+]4([O-])CCC[C@@H](CN12)[C@@H]34 (some centres not stated) : Criterion not met

###

Overview of reported cell viability across a group of molecules:
Test system: NOMO1
Assay: cell viability relative to DMSO control; higher = less cytotoxic
Conditions: HPLM + 10% dialyzed FBS; 48 h; 0.00234 µM
OBSERVABLE: cell viability (%)

1. CCc1c(O)cc(O)c(C(=O)c2ccc(OCCN3CCOCC3)c(OC)c2)c1CC(=O)N(CCOC)CCOC : 106
2. COc1nccc(-c2c(-c3ccc(F)cc3)ncn2C2CCC(O)CC2)n1 (stereo unspecified) : 123
3. N#CC1(c2ccc(NC(=O)c3cccnc3NCc3ccncc3)cc2)CCCC1 : 110
4. CCCC(CCC)C(=O)[O-] : 105
5. CC1=CC=C2\N=C/3N(CC[C@@]3(O)C(=O)C2=C1)C4=CC=CC=C4 : 103
6. FC1=CC=C(CN2\C=C/C=C(/C(=O)N[C@@H](COC3=CC4=C(NC(=O)N4)C=C3)C5=CC=CC=C5)C2=O)C=C1F : 91.5
7. C[C@H](NC(=O)Cc1cc(F)cc(F)c1)C(=O)N[C@@H]1C(=O)N(C)c2ccccc2-c2ccccc21 : 107
8. C=C[C@H]1CN2CCC1C[C@@H]2[C@@H](O)c1ccnc2ccccc12 (stereo partly specified) : 109
9. C=CCc1cc(OC)c(O)c(C(=O)NCCO)c1 : 113
10. CC(Cc1ccc(O)c(O)c1)(NN)C(=O)O (stereo unspecified) : 109
11. O=C(O)[C@@H](c1ccc(OCc2ccc3ccccc3n2)cc1)C1CCCC1 : 114
